The reported measurements were obtained from paper PMC6600263.

Record form. Attribute: AUC 0-t. Fill in for each entry.
measurement description: pharmacokinetics of 16 ginsenosides in rat plasma after oral administration of RGS
Type: in vivo
cond: model (scopolamine 1 mg/kg i.p.-treated) rats, oral RGS single dose 100 mg/kg, plasma, mean ± S.D., n = 5
Just the number in ng·h/g, nothing appended.

Please give the measured AUC 0-t for this compound: CC(C)=CCCC(C)(OC1OC(CO)C(O)C(O)C1O)C1CCC2(C)C1C(O)CC1C3(C)CCC(O)C(C)(C)C3C(OC3OC(CO)C(O)C(O)C3O)CC12C (stereo not drawn)
664.5

Please give the measured AUC 0-t for this compound: CC(C)=CCCC(C)(O)C1CCC2(C)C1C(O)CC1C3(C)CCC(OC4OC(CO)C(O)C(O)C4O)C(C)(C)C3CCC12C (stereo not drawn)
369.8

Please give the measured AUC 0-t for this compound: CC(C)=CCC=C(C)C1CCC2(C)C1C(O)CC1C3(C)CCC(OC4OC(CO)C(O)C(O)C4OC4OC(CO)C(O)C(O)C4O)C(C)(C)C3CCC12C (stereo not drawn)
569.8

Please give the measured AUC 0-t for this compound: C=C(CCC=C(C)C)C1CCC2(C)C1C(O)CC1C3(C)CCC(OC4OC(CO)C(O)C(O)C4OC4OC(CO)C(O)C(O)C4O)C(C)(C)C3CCC12C (stereo not drawn)
736.8

Please give the measured AUC 0-t for this compound: CC(C)=CCCC(C)(OC1OC(COC2OCC(O)C(O)C2O)C(O)C(O)C1O)C1CCC2(C)C1C(O)CC1C3(C)CCC(OC4OC(CO)C(O)C(O)C4OC4OC(CO)C(O)C(O)C4O)C(C)(C)C3CCC12C (stereo not drawn)
90.3

Please give the measured AUC 0-t for this compound: CC(C)=CCCC(C)(OC1OC(COC2OC(CO)C(O)C(O)C2O)C(O)C(O)C1O)C1CCC2(C)C1C(O)CC1C3(C)CCC(OC4OC(CO)C(O)C(O)C4OC4OC(CO)C(O)C(O)C4O)C(C)(C)C3CCC12C (stereo not drawn)
298.9
